Task for the reader: assign each of the following molecules its reported log10 of Tmax.
assay: Rat CSF distribution after oral administration of APRE (UPLC-MS/MS); conditions: rat, CSF, po, 4 g/kg
Log scale reminder: Tmax in h, then log10 taken.

Exercise: Requested read-out: log10 of Tmax. Entry: CC(C)(O)[C@@H]1Cc2c(ccc3ccc(=O)oc23)O1 [Compound 5, columbianetin]
Solution: 0.70

Exercise: Then this molecule: CC(C)(O)[C@H]1Cc2cc3ccc(=O)oc3cc2O1 [Compound 12, nodakenetin]
Solution: 0.80

Exercise: Then this molecule: COc1c2ccoc2cc2oc(=O)ccc12 [Compound 3, bergapten]
Solution: 0.16

Exercise: Then this molecule: CC(C)(O)[C@H](O)COc1c2ccoc2cc2oc(=O)ccc12 [Compound 8, oxypeucedanin hydrate]
Solution: 0.30

Exercise: Then this molecule: CC=C(C)C(=O)OC(C(O)c1cc2ccc(=O)oc2cc1OC)C(C)(C)O (centres unmarked) [Compound 9, angelol B]
Solution: -0.42

Exercise: Then this molecule: O=c1ccc2cc3ccoc3cc2o1 [Compound 1, psoralen]
Solution: 0.67

Exercise: Then this molecule: COc1ccc2ccc(=O)oc2c1CC=C(C)C [Compound 10, osthole]
Solution: 0.45

Exercise: Then this molecule: COc1ccc2ccc(=O)oc2c1CC(O)C(C)(C)O (centres unmarked) [Compound 11, Meranzin hydrate]
Solution: 0.34
